# Assayed Target: Myosin II (EDTA)
# Protocol Notes: ATPase activity assay, specificity panel (EDTA activated ATPase)
# Reported Conditions: read-out: Concentration causing 50% inhibition of enzymatic activity (C50)
Attribute Measured: IC50 (µM)

# Molecule, Test Result
rows = [
    ("CC1(C)CCC[C@]2(C)O[C@H]3CC[C@@]4(C)[C@@H](CC[C@]5(C)[C@@H]4CC[C@]4(C)c6c(OS(=O)(=O)O)ccc(OS(=O)(=O)O)c6C[C@@H]54)[C@]3(C)CC[C@@H]12 [adociasulfate]", 75),
]

---

# Assayed Target: rabbit kidney ATPase
# Protocol Notes: ATPase activity assay, specificity panel
# Format: biochemical
# Reported Conditions: highest used inhibitor concentration 136 μM, read-out: Concentration causing 50% inhibition of enzymatic activity (C50)
pIC50: −log10 of the molar value.
Attribute Measured: pIC50

# Compound, Assayed Target, Attribute Measured, Test Result
records = [
    ("CC1(C)CCC[C@]2(C)O[C@H]3CC[C@@]4(C)[C@@H](CC[C@]5(C)[C@@H]4CC[C@]4(C)c6c(OS(=O)(=O)O)ccc(OS(=O)(=O)O)c6C[C@@H]54)[C@]3(C)CC[C@@H]12 [adociasulfate]", "rabbit kidney ATPase", "pIC50", "< 3.87"),
]

---

# Assayed Target: TI-γ
# Protocol Notes: ATPase activity assay, specificity panel
# Reported Conditions: at 2 μM tubulin, read-out: Concentration causing 50% inhibition of enzymatic activity (C50)

# Molecule, Assayed Target, Unit Of Measurement, IC50
measured = [
    ("CC1(C)CCC[C@]2(C)O[C@H]3CC[C@@]4(C)[C@@H](CC[C@]5(C)[C@@H]4CC[C@]4(C)c6c(OS(=O)(=O)O)ccc(OS(=O)(=O)O)c6C[C@@H]54)[C@]3(C)CC[C@@H]12 [adociasulfate]", "TI-γ", "nM", 2000),
]
